Biological target: Tyrosine-protein phosphatase non-receptor type 1 (Homo sapiens, UniProt P18031)
Sequence (P18031 whole entry): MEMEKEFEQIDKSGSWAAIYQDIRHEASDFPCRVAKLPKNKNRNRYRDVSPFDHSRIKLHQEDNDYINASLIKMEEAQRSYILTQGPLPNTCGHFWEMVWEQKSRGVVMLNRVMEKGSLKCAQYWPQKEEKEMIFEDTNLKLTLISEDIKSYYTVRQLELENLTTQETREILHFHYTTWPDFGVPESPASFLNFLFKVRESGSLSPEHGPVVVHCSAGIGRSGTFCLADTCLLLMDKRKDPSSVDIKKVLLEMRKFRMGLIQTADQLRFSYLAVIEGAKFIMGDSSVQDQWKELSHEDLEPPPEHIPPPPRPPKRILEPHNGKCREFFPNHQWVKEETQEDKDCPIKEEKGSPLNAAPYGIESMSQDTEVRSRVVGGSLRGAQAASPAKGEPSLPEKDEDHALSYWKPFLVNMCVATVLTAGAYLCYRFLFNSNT
Can you tell me IC50 for the items I'm about to list?
State just the number; it will be interpreted in µM.

# return IC50 for "O=[N+]([O-])c1cccc(S(=O)(=O)Nc2ccc(-c3nc4cc(NS(=O)(=O)c5cccc([N+](=O)[O-])c5)ccc4o3)cc2)c1" , test system: Tyrosine-protein phosphatase non-receptor type 1 (Homo sapiens, UniProt P18031)
14

# return IC50 for "O=S(=O)(Nc1ccc(-c2nc3ccccc3o2)cc1)c1ccccc1C(F)(F)F" , test system: Tyrosine-protein phosphatase non-receptor type 1 (Homo sapiens, UniProt P18031)
44

# return IC50 for "COC(=O)c1ccccc1S(=O)(=O)Nc1ccc(-c2nc3cc(NS(=O)(=O)c4ccccc4C(=O)OC)ccc3o2)cc1" , test system: Tyrosine-protein phosphatase non-receptor type 1 (Homo sapiens, UniProt P18031)
10

# return IC50 for "O=S(=O)(Nc1ccc(-c2nc3cc(NS(=O)(=O)c4cccc(Br)c4)ccc3o2)cc1)c1cccc(Br)c1" , test system: Tyrosine-protein phosphatase non-receptor type 1 (Homo sapiens, UniProt P18031)
14

# return IC50 for "O=S(=O)(Nc1ccc(-c2nc3ccccc3o2)cc1)c1ccccc1F" , test system: Tyrosine-protein phosphatase non-receptor type 1 (Homo sapiens, UniProt P18031)
55

# return IC50 for "O=S(=O)(Nc1ccc(-c2nc3ccccc3o2)cc1)c1cccc(F)c1" , test system: Tyrosine-protein phosphatase non-receptor type 1 (Homo sapiens, UniProt P18031)
62

# return IC50 for "O=S(=O)(Nc1ccc(-c2nc3cc(NS(=O)(=O)c4ccc(Br)cc4)ccc3o2)cc1)c1ccc(Br)cc1" , test system: Tyrosine-protein phosphatase non-receptor type 1 (Homo sapiens, UniProt P18031)
11

# return IC50 for "O=[N+]([O-])c1ccc(S(=O)(=O)Nc2ccc(-c3nc4cc(NS(=O)(=O)c5ccc([N+](=O)[O-])cc5)ccc4o3)cc2)cc1" , test system: Tyrosine-protein phosphatase non-receptor type 1 (Homo sapiens, UniProt P18031)
27

# return IC50 for "O=S(=O)(Nc1ccc(-c2nc3cc(NS(=O)(=O)c4ccc(F)cc4)ccc3o2)cc1)c1ccc(F)cc1" , test system: Tyrosine-protein phosphatase non-receptor type 1 (Homo sapiens, UniProt P18031)
27

# return IC50 for "Cc1cccc(S(=O)(=O)Nc2ccc(-c3nc4cc(NS(=O)(=O)c5cccc(C)c5)ccc4o3)cc2)c1" , test system: Tyrosine-protein phosphatase non-receptor type 1 (Homo sapiens, UniProt P18031)
13

# return IC50 for "COc1ccc(S(=O)(=O)Nc2ccc(-c3nc4ccccc4o3)cc2)cc1" , test system: Tyrosine-protein phosphatase non-receptor type 1 (Homo sapiens, UniProt P18031)
42

# return IC50 for "O=S(=O)(Nc1ccc(-c2nc3cc(NS(=O)(=O)c4ccc(Cl)cc4)ccc3o2)cc1)c1ccc(Cl)cc1" , test system: Tyrosine-protein phosphatase non-receptor type 1 (Homo sapiens, UniProt P18031)
8.1

# return IC50 for "O=S(=O)(Nc1ccc(-c2nc3cc(NS(=O)(=O)c4cccc5nonc45)ccc3o2)cc1)c1cccc2nonc12" , test system: Tyrosine-protein phosphatase non-receptor type 1 (Homo sapiens, UniProt P18031)
34

# return IC50 for "COC(=O)c1ccc(S(=O)(=O)Nc2ccc(-c3nc4cc(NS(=O)(=O)c5ccc(C(=O)OC)cc5)ccc4o3)cc2)cc1" , test system: Tyrosine-protein phosphatase non-receptor type 1 (Homo sapiens, UniProt P18031)
11

# return IC50 for "O=S(=O)(Nc1ccc(-c2nc3cc(NS(=O)(=O)c4ccccc4F)ccc3o2)cc1)c1ccccc1F" , test system: Tyrosine-protein phosphatase non-receptor type 1 (Homo sapiens, UniProt P18031)
36

# return IC50 for "O=S(=O)(Nc1ccc2oc(-c3ccc(NS(=O)(=O)c4ccc(Cl)s4)cc3)nc2c1)c1ccc2ncsc2c1" , test system: Tyrosine-protein phosphatase non-receptor type 1 (Homo sapiens, UniProt P18031)
12

====

Can you tell me IC50 for the items I'm about to list?
Molecular target: Tyrosine-protein phosphatase non-receptor type 2 (Homo sapiens, UniProt P17706)
Sequence (P17706 whole entry): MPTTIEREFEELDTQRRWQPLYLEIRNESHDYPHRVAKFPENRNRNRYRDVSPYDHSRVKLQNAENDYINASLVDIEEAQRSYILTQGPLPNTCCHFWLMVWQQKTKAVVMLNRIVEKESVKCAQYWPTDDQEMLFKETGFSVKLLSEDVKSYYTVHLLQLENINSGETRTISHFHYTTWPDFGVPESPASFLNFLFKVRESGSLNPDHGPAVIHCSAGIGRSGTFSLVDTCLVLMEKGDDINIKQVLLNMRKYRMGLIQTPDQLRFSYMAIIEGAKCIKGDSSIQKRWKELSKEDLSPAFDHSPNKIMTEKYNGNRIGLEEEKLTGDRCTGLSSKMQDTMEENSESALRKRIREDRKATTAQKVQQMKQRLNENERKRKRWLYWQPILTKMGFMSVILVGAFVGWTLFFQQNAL
State just the number; it will be interpreted in µM.

Tell me IC50 reported for "O=S(=O)(Nc1ccc(-c2nc3ccccc3o2)cc1)c1cccc(F)c1"
80

Tell me IC50 reported for "N#Cc1ccc(S(=O)(=O)Nc2ccc(-c3nc4cc(NS(=O)(=O)c5ccc(C#N)cc5)ccc4o3)cc2)cc1"
35

Tell me IC50 reported for "O=S(=O)(Nc1ccc2oc(-c3ccc(NS(=O)(=O)c4ccc(Cl)s4)cc3)nc2c1)c1ccc(Br)cc1"
14

Tell me IC50 reported for "COc1ccccc1S(=O)(=O)Nc1ccc(-c2nc3ccccc3o2)cc1"
53

Tell me IC50 reported for "O=S(=O)(Nc1ccc(-c2nc3ccccc3o2)cc1)c1ccc(C(F)(F)F)cc1"
38

Tell me IC50 reported for "O=S(=O)(Nc1ccc(-c2nc3ccccc3o2)cc1)c1ccc(Cl)c(Cl)c1"
33

Tell me IC50 reported for "O=S(=O)(Nc1ccc(-c2nc3cc(NS(=O)(=O)c4ccccc4O)ccc3o2)cc1)c1ccccc1O"
39

Tell me IC50 reported for "O=S(=O)(Nc1ccc2oc(-c3ccccc3)nc2c1)c1ccc(F)c(C(F)(F)F)c1"
39

Tell me IC50 reported for "O=S(=O)(Nc1ccc(-c2nc3cc(NS(=O)(=O)c4cccc5nonc45)ccc3o2)cc1)c1ccc(Cl)s1"
25

Tell me IC50 reported for "COc1cccc(S(=O)(=O)Nc2ccc(-c3nc4ccccc4o3)cc2)c1"
67

Tell me IC50 reported for "O=[N+]([O-])c1cc(S(=O)(=O)Nc2ccc(-c3nc4cc(NS(=O)(=O)c5ccc(Cl)s5)ccc4o3)cc2)ccc1Cl"
18

Tell me IC50 reported for "COc1ccc(Cl)cc1S(=O)(=O)Nc1ccc2oc(-c3ccccc3)nc2c1"
25

Tell me IC50 reported for "O=S(=O)(Nc1ccc2oc(-c3ccccc3)nc2c1)c1cccc(Cl)c1"
51

Tell me IC50 reported for "O=S(=O)(Nc1ccc2oc(-c3ccc(NS(=O)(=O)c4ccc(Cl)s4)cc3)nc2c1)c1ccc2ncsc2c1"
9.3

Tell me IC50 reported for "O=S(=O)(Nc1ccc(-c2nc3cc(NS(=O)(=O)c4ccc5ccccc5c4)ccc3o2)cc1)c1ccc2ccccc2c1"
24

Tell me IC50 reported for "O=S(=O)(Nc1ccc2oc(-c3ccccc3)nc2c1)c1ccc(F)cc1"
61

Tell me IC50 reported for "O=S(=O)(Nc1ccc2oc(-c3ccc(NS(=O)(=O)c4ccc(Cl)s4)cc3)nc2c1)c1cccs1"
31

====

Biological target: Tyrosine-protein phosphatase non-receptor type 5 (Homo sapiens, UniProt P54829)
Sequence (P54829 whole entry): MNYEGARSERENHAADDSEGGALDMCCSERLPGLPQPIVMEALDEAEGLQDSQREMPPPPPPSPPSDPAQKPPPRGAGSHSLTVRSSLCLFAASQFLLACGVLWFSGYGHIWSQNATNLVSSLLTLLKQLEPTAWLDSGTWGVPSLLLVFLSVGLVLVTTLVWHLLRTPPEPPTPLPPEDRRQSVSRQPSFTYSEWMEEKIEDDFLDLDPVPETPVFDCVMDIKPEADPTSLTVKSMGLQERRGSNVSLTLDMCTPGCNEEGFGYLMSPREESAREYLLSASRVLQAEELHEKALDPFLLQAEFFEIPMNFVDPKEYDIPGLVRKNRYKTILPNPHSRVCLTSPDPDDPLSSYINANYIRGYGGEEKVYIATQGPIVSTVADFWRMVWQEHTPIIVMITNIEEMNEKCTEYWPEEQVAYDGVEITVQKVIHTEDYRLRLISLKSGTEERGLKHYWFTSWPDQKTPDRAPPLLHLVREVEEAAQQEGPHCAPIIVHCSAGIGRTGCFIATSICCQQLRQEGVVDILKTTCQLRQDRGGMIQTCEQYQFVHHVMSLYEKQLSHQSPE
measurementKind: pIC50
// scale note: pIC50 = -log10(conc_M); give the bare number

Tell me pIC50 reported for "O=c1ccc2cc(S(=O)(=O)Nc3ccc(-c4nc5cc(NS(=O)(=O)c6ccc7oc(=O)ccc7c6)ccc5o4)cc3)ccc2o1"
4.77

Tell me pIC50 reported for "O=[N+]([O-])c1cc(S(=O)(=O)Nc2ccc3oc(-c4ccccc4)nc3c2)ccc1Cl"
4.49

Tell me pIC50 reported for "O=S(=O)(Nc1ccc(-c2nc3cc(NS(=O)(=O)c4cccc5nonc45)ccc3o2)cc1)c1cccc2nonc12"
4.40

Tell me pIC50 reported for "O=S(=O)(Nc1ccc(-c2nc3cc(NS(=O)(=O)c4ccc(Cl)s4)ccc3o2)cc1)c1ccc(Cl)c(C(F)(F)F)c1"
4.92

Tell me pIC50 reported for "Nc1ccccc1S(=O)(=O)Nc1ccc(-c2nc3cc(NS(=O)(=O)c4ccccc4N)ccc3o2)cc1"
4.29

Tell me pIC50 reported for "O=S(=O)(Nc1ccc2oc(-c3ccccc3)nc2c1)c1ccc(Cl)c(C(F)(F)F)c1"
4.55

Tell me pIC50 reported for "COc1cccc(S(=O)(=O)Nc2ccc3oc(-c4ccccc4)nc3c2)c1"
4.36

Tell me pIC50 reported for "COc1cccc(S(=O)(=O)Nc2ccc(-c3nc4cc(NS(=O)(=O)c5cccc(OC)c5)ccc4o3)cc2)c1"
4.66

Tell me pIC50 reported for "O=S(=O)(Nc1ccc2oc(-c3ccccc3)nc2c1)c1ccc(C(F)(F)F)cc1"
4.57

Tell me pIC50 reported for "O=S(=O)(Nc1ccc2oc(-c3ccccc3)nc2c1)c1ccc(Cl)s1"
4.36

Tell me pIC50 reported for "O=S(=O)(Nc1ccc(-c2nc3ccccc3o2)cc1)c1ccc(F)cc1"
4.23

Tell me pIC50 reported for "O=S(=O)(Nc1ccc(-c2nc3ccccc3o2)cc1)c1ccc(Cl)cc1"
4.44

Tell me pIC50 reported for "O=S(=O)(Nc1ccc(-c2nc3cc(NS(=O)(=O)c4cccc5ccccc45)ccc3o2)cc1)c1cccc2ccccc12"
5.31

Tell me pIC50 reported for "COc1cccc(S(=O)(=O)Nc2ccc(-c3nc4ccccc4o3)cc2)c1"
4.32

Tell me pIC50 reported for "C=Cc1ccc(S(=O)(=O)Nc2ccc(-c3nc4cc(NS(=O)(=O)c5ccc(Cl)s5)ccc4o3)cc2)cc1"
4.89

Tell me pIC50 reported for "O=S(=O)(Nc1ccc(-c2nc3cc(NS(=O)(=O)c4ccc(Cl)s4)ccc3o2)cc1)c1ccccc1"
4.77

Tell me pIC50 reported for "O=S(=O)(Nc1ccc2oc(-c3ccccc3)nc2c1)c1ccc(Cl)cc1"
4.59
